# assay.target: P2Y purinoceptor 1 (Homo sapiens, UniProt P47900)
# Sequence (P47900 whole entry): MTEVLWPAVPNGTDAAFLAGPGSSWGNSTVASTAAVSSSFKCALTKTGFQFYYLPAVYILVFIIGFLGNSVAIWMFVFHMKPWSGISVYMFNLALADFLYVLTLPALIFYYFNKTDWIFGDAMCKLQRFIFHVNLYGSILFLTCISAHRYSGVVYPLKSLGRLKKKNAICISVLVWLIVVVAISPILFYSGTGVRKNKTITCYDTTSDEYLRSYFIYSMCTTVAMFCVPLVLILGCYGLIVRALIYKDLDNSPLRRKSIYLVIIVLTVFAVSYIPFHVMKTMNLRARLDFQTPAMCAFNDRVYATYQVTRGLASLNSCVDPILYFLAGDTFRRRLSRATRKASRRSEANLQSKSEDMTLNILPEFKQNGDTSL
# protocol: Antagonist activity at human P2Y1R expressed in human 1321N1 cells assessed as inhibition of 2-MeSADP-induced increase in intracellular calcium mobilization at 10 uM
# Assay type: functional, cell-based
Output true for inhibition not less than 20%; output false otherwise.

smiles_code=Cc1ccc(NC(=O)Nc2ccc(S(=O)(=O)Nc3onc(C)c3C)cc2)cc1C assigned_label=false
smiles_code=Cc1noc(NS(=O)(=O)c2ccc(NC(=O)Nc3cc(Cl)cc(Cl)c3)cc2)c1C assigned_label=false
smiles_code=Cc1noc(NS(=O)(=O)c2ccc(NC(=O)Nc3ccc(F)c(Cl)c3)cc2)c1C assigned_label=true
smiles_code=Cc1noc(NS(=O)(=O)c2ccc(NC(=O)Nc3ccc(Cl)c(Cl)c3)cc2)c1C assigned_label=true
smiles_code=COc1ccc(NC(=O)Nc2ccc(S(=O)(=O)Nc3onc(C)c3C)cc2)cc1OC assigned_label=false
smiles_code=Cc1noc(NS(=O)(=O)c2ccc(NC(=O)Nc3cc(F)cc(F)c3)cc2)c1C assigned_label=false
smiles_code=Cc1noc(NS(=O)(=O)c2ccc(NC(=O)Nc3ccccc3)cc2)c1C assigned_label=false
smiles_code=Cc1noc(NS(=O)(=O)c2ccc(NC(=O)Nc3cccc(Cl)c3)cc2)c1C assigned_label=true
smiles_code=Cc1noc(NS(=O)(=O)c2ccc(NC(=O)Nc3ccc(F)c(F)c3)cc2)c1C assigned_label=false
smiles_code=Cc1noc(NS(=O)(=O)c2ccc(NC(=O)Nc3ccc(C(F)(F)F)cc3)cc2)c1C assigned_label=true

---

# assay.target: UniProt:P47900
# protocol: Displacement of [125I]MRS2500 from human P2Y1R expressed in Sf9 cell membrane at 20 uM
attribute.measured: inhibition (%)

compound="COc1ccc(S(=O)(=O)NCC(c2ccc3c(c2)OCO3)N2CCN(C)CC2)cc1OC (configuration not stated)" operator_symbol== measured=20
compound=Cc1noc(NS(=O)(=O)c2ccc(NC(=O)Nc3ccccc3)cc2)c1C operator_symbol=< measured=10
compound=Cc1cc(NC(=O)CSc2ccc3nnc(CCNS(=O)(=O)c4ccccc4)n3n2)no1 operator_symbol== measured=20
compound=Cc1noc(NS(=O)(=O)c2ccc(NC(=O)Nc3ccc(F)c(F)c3)cc2)c1C operator_symbol=< measured=10
compound=CN(C)CCCN(C(=O)c1ccco1)c1nc2cc3c(cc2s1)OCO3 operator_symbol== measured=40
compound=COc1ccc(S(=O)(=O)Nc2ccc3c(c2)C(=O)Nc2ccccc2O3)cc1OC operator_symbol== measured=20
compound="Cn1c(=O)[nH]c(=O)c2nc(NCCCO)n(CC(O)COc3ccccc3)c21 (configuration not stated)" operator_symbol== measured=20
compound=Cc1ccc(NC(=O)Nc2ccc(S(=O)(=O)Nc3onc(C)c3C)cc2)cc1C operator_symbol=< measured=10
compound=COc1ccc(NC(=O)Nc2ccc(S(=O)(=O)Nc3onc(C)c3C)cc2)cc1OC operator_symbol=< measured=10
compound="O=C(CSC1=NC(=O)N(CCCN2CCOCC2)C2CCCC12)Nc1ccc2c(c1)OCO2 (configuration not stated)" operator_symbol== measured=20
compound="CC1=C2C(=O)NC(SCC(=O)Nc3ccc(S(=O)(=O)NCCCC(=O)O)cc3)=NC2SC1C(=O)O (configuration not stated)" operator_symbol== measured=30
compound=Cn1nnc2c(Cc3ccc(S(N)(=O)=O)cc3)ncnc21 operator_symbol== measured=20

The values you see were collected from ChEMBL document CHEMBL2069288.
